# inhibition at 72 h, 50 ug/ml values compiled below
assay: Cytotoxicity against mouse RAW264.7 cells assessed as inhibition of cell viability at 50 ug/ml after 72 hrs by Cell Titer 96 non-radioactive cell proliferation assay; assay type: cell-based
// units = %; emit number, no label

Sample answers from the record:
1. O=S(=O)(c1ccc(F)cc1)N1CCN(c2nc3ccccc3c3ccccc23)CC1; 32.8
2. O=C(/C=C/c1ccccc1)N1CCN(c2nc3ccccc3c3ccccc23)CC1; 22.1
3. O=C(O)c1cccc(C(=O)N2CCN(c3nc4ccccc4c4ccccc34)CC2)n1; 26.5
4. O=C(c1cccc([N+](=O)[O-])c1)N1CCN(c2nc3ccccc3c3ccccc23)CC1; 34.6
5. COc1ccc(S(=O)(=O)N2CCN(c3nc4ccccc4c4ccccc34)CC2)cc1; 26.5

**Query** Identify measured inhibition at 72 h, 50 ug/ml associated with `O=C(CCCc1c[nH]c2ccccc12)N1CCN(c2nc3ccccc3c3ccccc23)CC1`
**Result** 34.1

**Query** Identify measured inhibition at 72 h, 50 ug/ml associated with `O=C(c1ccc(Cl)cc1)N1CCN(c2nc3ccccc3c3ccccc23)CC1`
**Result** 26.5

----------
# selectivity ratio values compiled below
assay: Selectivity index, ratio of IC50 for mouse RAW264.7 cells to MIC for Mycobacterium tuberculosis H37Rv ATCC 27294; type: toxicity; details: read-out: Selectivity Index
Quick one: just the number, no unit, thanks!

Sample answers from the record:
1. O=C(c1ccc(Cl)cc1)N1CCN(c2nc3ccccc3c3ccccc23)CC1; 7.54
2. O=C(c1ccccc1)N1CCN(c2nc3ccccc3c3ccccc23)CC1; 36.1
3. O=C(c1ccccn1)N1CCN(c2nc3ccccc3c3ccccc23)CC1; 19
4. Cc1cc(C)c(S(=O)(=O)N2CCN(c3nc4ccccc4c4ccccc34)CC2)c(C)c1; 7.54
5. O=C(O)c1cccc(C(=O)N2CCN(c3nc4ccccc4c4ccccc34)CC2)n1; 30.2

// switching to the query compound
**Query** Identify measured selectivity ratio associated with `O=C(CCCc1c[nH]c2ccccc12)N1CCN(c2nc3ccccc3c3ccccc23)CC1`
**Result** 47

----------
# MIC99 values compiled below
system: Mycobacterium tuberculosis; test: Antimycobacterial activity against Mycobacterium tuberculosis H37Rv ATCC 27294 after 5 days by microplate alamar blue assay; assay type: functional; details: H37Rv ATCC 27294, 120 h
// units = µg/mL; emit number, no label

Sample answers from the record:
1. O=C(c1cccnc1)N1CCN(c2nc3ccccc3c3ccccc23)CC1; 6.25
2. COc1ccc(S(=O)(=O)N2CCN(c3nc4ccccc4c4ccccc34)CC2)cc1; 6.25
3. O=[N+]([O-])c1ccc(S(=O)(=O)N2CCN(c3nc4ccccc4c4ccccc34)CC2)cc1; 50

**Query** Identify measured MIC99 associated with `NNC(=O)c1ccncc1`
**Result** 0.1

**Query** Identify measured MIC99 associated with `O=C(c1ccco1)N1CCN(c2nc3ccccc3c3ccccc23)CC1`
**Result** 25

**Query** Identify measured MIC99 associated with `Nc1ccc(C(=O)N2CCN(c3nc4ccccc4c4ccccc34)CC2)cc1`
**Result** 50

**Query** Identify measured MIC99 associated with `CC(C)(C)c1ccc(S(=O)(=O)N2CCN(c3nc4ccccc4c4ccccc34)CC2)cc1`
**Result** 1.56

**Query** Identify measured MIC99 associated with `O=C(c1ccncc1)N1CCN(c2nc3ccccc3c3ccccc23)CC1`
**Result** 1.56

**Query** Identify measured MIC99 associated with `O=C(c1ccccn1)N1CCN(c2nc3ccccc3c3ccccc23)CC1`
**Result** 3.13

**Query** Identify measured MIC99 associated with `O=S(=O)(c1ccccc1)N1CCN(c2nc3ccccc3c3ccccc23)CC1`
**Result** 6.25

**Query** Identify measured MIC99 associated with `CS(=O)(=O)N1CCN(c2nc3ccccc3c3ccccc23)CC1`
**Result** 25

**Query** Identify measured MIC99 associated with `O=S(=O)(c1ccc(C(F)(F)F)cc1)N1CCN(c2nc3ccccc3c3ccccc23)CC1`
**Result** 25

**Query** Identify measured MIC99 associated with `O=C(c1ccc([N+](=O)[O-])cc1)N1CCN(c2nc3ccccc3c3ccccc23)CC1`
**Result** 50

**Query** Identify measured MIC99 associated with `O=S(=O)(c1ccc(Br)s1)N1CCN(c2nc3ccccc3c3ccccc23)CC1`
**Result** 3.13

The measured values listed here are drawn from ChEMBL document CHEMBL4000144.
